Tested on: A549
protocol_text: Phototoxicity against human A549 cells incubated for 24 hrs followed by UV-irradiation for 10 mins measured after 24 hrs by WST assay
Format: functional, cell-based
condition_notes: Homo sapiens, A549, light or radiation study
Please go through the items and note down their IC50.
Answers are plain numbers, in µM.

>>> measured_result("O=C(Nc1ccc(-c2c3nc(c(-c4ccncc4)c4ccc([nH]4)c(-c4ccncc4)c4nc(c(-c5ccncc5)c5ccc2[nH]5)C=C4)C=C3)cc1)c1cnc2ccccc2n1")
0.17

With those in mind, consider the next compound.
Measured IC50 of C[n+]1ccc(-c2c3nc(c(-c4cc[n+](C)cc4)c4ccc([nH]4)c(-c4cc[n+](C)cc4)c4ccc([nH]4)c(-c4cc[n+](C)cc4)c4nc2C=C4)C=C3)cc1 : 1.24

* * *

System: A549
protocol_text: Phototoxicity against human A549 cells incubated for 24 hrs followed by exposure to visible-light for 10 mins measured after 24 hrs by WST assay
Assay type: functional, cell-based
condition_notes: Homo sapiens, A549, light or radiation study
attribute_measured: pIC50
Numbers only, as −log10 of the molar value.

>>> measured_result("O=C(Nc1ccc(-c2c3nc(c(-c4ccncc4)c4ccc([nH]4)c(-c4ccncc4)c4nc(c(-c5ccncc5)c5ccc2[nH]5)C=C4)C=C3)cc1)c1cnc2ccccc2n1")
6.74

With those in mind, consider the next compound.
Measured pIC50 of C[n+]1ccc(-c2c3nc(c(-c4cc[n+](C)cc4)c4ccc([nH]4)c(-c4cc[n+](C)cc4)c4ccc([nH]4)c(-c4cc[n+](C)cc4)c4nc2C=C4)C=C3)cc1 : 6.52

* * *

System: A549
protocol_text: Phototoxicity against human A549 cells incubated for 24 hrs followed by UV-irradiation for 10 mins measured after 24 hrs by WST assay
Type: functional, cell-based
condition_notes: a549
attribute_measured: pIC50
Numbers only, as −log10 of the molar value.

Considering C[n+]1ccc(-c2c3nc(c(-c4cc[n+](C)cc4)c4ccc([nH]4)c(-c4cc[n+](C)cc4)c4nc(c(-c5ccc(NC(=O)c6cnc7ccccc7n6)cc5)c5ccc2[nH]5)C=C4)C=C3)cc1.[I-].[I-].[I-] , its pIC50 with A549 was recorded as 6.80

These data points were gathered from ChEMBL document CHEMBL2385066.
